Test: Toxicity in ip dosed C57BL/6 mouse assessed as mortality measured every 24 hrs for 14 days
Format: organism-based
Conditions: in vivo
assayEndpoint: LD50 at 336 h
Kindly format the answer as number then unit.

CC1(C)C=C(c2nc3c(C(N)=O)cccc3[nH]2)CC(C)(C)N1 = 740 mg/kg

In the following, a different compound is considered.
Noted for CC1(C)C=C(c2nc3c(C(N)=O)cccc3[nH]2)C(C)(C)N1 : its LD50 at 336 h reads 620 mg/kg

----------
pIC50 overview
Tested on: WRL68
Assay: Inhibition of H2O2-induced cell death in human WRL68 cells after 3 hrs by MTT assay
Type: functional, cell-based
Details: WRL68, 3 h
Reminder that pIC50 means the negative base-10 logarithm of the concentration expressed in mol/L.

See these solved cases before continuing.
CC1(C)NC(C)(C)c2cc(-c3nc4c(C(N)=O)cccc4[nH]3)ccc21 = 6.72
COC(=O)[C@@H]1[C@@H](c2nc3c(C(N)=O)cccc3[nH]2)C(C)(C)N(O)C1(C)C = 4.95
CC1(C)C=C(c2nc3c(C(N)=O)cccc3[nH]2)CC(C)(C)N1O = 4.81
CC1(C)C=C(c2ccc(-c3nc4c(C(N)=O)cccc4[nH]3)cc2)C(C)(C)N1O = 7.48
CC1(C)C=C(Cn2cnc3c(C(N)=O)cccc32)C(C)(C)N1O = 5.70
CON1C(C)(C)C=C(c2nc3c(C(N)=O)cccc3[nH]2)C1(C)C = 8.03
CC1(C)C=C(CSc2nc3c(C(N)=O)cccc3[nH]2)C(C)(C)N1 = 5.50
CC1(C)C(c2ccccc2)=C(c2nc3c(C(N)=O)cccc3[nH]2)C(C)(C)N1O = 6.62

Memo: COc1cc(-c2nc3c(C(N)=O)cccc3[nH]2)ccc1OCC1=CC(C)(C)N(O)C1(C)C , reported pIC50: 4.99

Record COc1cc(-c2nc3c(C(N)=O)cccc3[nH]2)ccc1OCC1=CC(C)(C)NC1(C)C , field pIC50: 7.00

pIC50 in this record for CC1(C)NC(C)(C)C(c2nc3c(C(N)=O)cccc3[nH]2)=C1c1ccccc1 : 5.40

Query CC1(C)C=C(c2nc3c(C(N)=O)cccc3[nH]2)C(C)(C)N1 yields pIC50 of 6.21

Lookup result for CC1(C)C(c2nc3c(C(N)=O)cccc3[nH]2)=C(c2cccc3c2oc2ccccc23)C(C)(C)N1O ; measured pIC50: 4.57

For record CC1(C)C=C(CSc2nc3c(C(N)=O)cccc3[nH]2)CC(C)(C)N1O the listed pIC50 is 4.90
